Tested On: St-B17 serotonin receptor (Rattus norvegicus, UniProt P31388, L57V)
Sequence (P31388 with tags, fused parts or gaps L57V): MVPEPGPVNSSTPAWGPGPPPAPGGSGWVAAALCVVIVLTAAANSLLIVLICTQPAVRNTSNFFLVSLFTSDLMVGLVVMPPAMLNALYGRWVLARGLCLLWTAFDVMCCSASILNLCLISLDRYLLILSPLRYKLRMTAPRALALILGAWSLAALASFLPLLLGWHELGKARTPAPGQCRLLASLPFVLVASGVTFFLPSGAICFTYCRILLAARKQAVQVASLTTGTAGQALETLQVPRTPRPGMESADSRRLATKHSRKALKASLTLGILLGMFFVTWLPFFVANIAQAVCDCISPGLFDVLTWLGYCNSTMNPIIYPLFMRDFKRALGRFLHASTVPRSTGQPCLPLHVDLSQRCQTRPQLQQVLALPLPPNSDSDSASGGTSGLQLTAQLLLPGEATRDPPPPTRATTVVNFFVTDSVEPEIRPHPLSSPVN
Run Description: [3H]-5-HT competition binding, Cos-7 cell membranes expressing St-B17
Parameters: expressed in transfected cells; host or cells: Cos-7 cells, transient transfection, crude membranes
Value Kind: Ki (nM)
Output spec: scalar in nM, unitless text.

Which Ki reading was recorded for the molecule CN1C[C@H](C(=O)N[C@]2(C)O[C@@]3(O)[C@@H]4CCCN4C(=O)[C@H](Cc4ccccc4)N3C2=O)C[C@@H]2c3cccc4[nH]cc(c34)C[C@H]21 [Dihydroergotamine] ? 5.4

====

Tested On: St-B17 serotonin receptor (Rattus norvegicus, UniProt P31388)
Construct: expressed in transfected cells; host or cells: Cos-7 cells, transient transfection, crude membranes
Run Description: [125I]-LSD competition binding, Cos-7 cell membranes expressing St-B17
Test Conditions: read-out: Ki vs. [125I]-LSD, Mean ± SEM
Method: This experiment was performed on Cos-7 cell membranes expressing the St-B17 serotonin receptor.
Value Kind: Ki (nM)
Output spec: scalar in nM, unitless text.

Which Ki reading was recorded for the compound `CN1C[C@H](CC#N)C[C@@H]2c3cccc4[nH]c(Cl)c(c34)C[C@H]21` ? 36.5
